Tested on: isolated rat bladder
MEASUREMENT_NOTES: Functional experiments using isolated rat bladder (carbachol-induced contraction)
MEASUREMENT_CONTEXT: isolated rat bladder strips, carbachol concentration response curve
So basically: is Functional Assay pKB under 8? Then Met. Not under? Then Not met.

Completed entries (count: 5):
molecule="O=C(NC[C@@H]1[C@H]2CN(Cc3ccccc3)C[C@@H]12)[C@](O)(c1ccccc1)C1CCC(F)(F)C1 (single isomer, unassigned) [Compound No. 1B]" target_or_test_system="isolated rat bladder" class_label="Not met"
molecule="O=C(Cc1ccccc1)NC1CCC([C@](O)(C(=O)NC[C@@H]2[C@H]3CN(Cc4ccccc4)C[C@@H]23)c2ccccc2)C1 (stereo partly drawn)" target_or_test_system="isolated rat bladder" class_label=Met
molecule="O=C(NCC1C2CN(Cc3ccccc3)CC12)C(O)(c1ccccc1)C1CCC(NS(=O)(=O)c2ccc([N+](=O)[O-])cc2)C1 (single isomer, unassigned)" target_or_test_system="isolated rat bladder" class_label=Met
molecule="O=C(NCC1C2CN(Cc3ccccc3)CC12)C(O)(c1ccccc1)C1CCC(F)C1 (single isomer, unassigned)" target_or_test_system="isolated rat bladder" class_label="Not met"
molecule="O=C(NCC1C2CN(Cc3ccccc3)CC12)C(O)(c1ccccc1)C1CCC(F)(F)C1 (mixture of isomers)" target_or_test_system="isolated rat bladder" class_label="Not met"

Kindly review the next molecule as well.
Req: Please let me know if O=C(NC[C@@H]1[C@H]2CN(Cc3ccccc3)C[C@@H]12)[C@](O)(c1ccccc1)C1CCC(F)C1 (stereo partly drawn) shows Functional Assay pKB below 8.
Resp: Not met

###

TARGET_OR_TEST_SYSTEM: M3 muscarinic receptor (Rattus norvegicus)
Construct: from tissue; host or cells: rat submandibular gland membrane homogenate
Sequence (P08483 whole entry): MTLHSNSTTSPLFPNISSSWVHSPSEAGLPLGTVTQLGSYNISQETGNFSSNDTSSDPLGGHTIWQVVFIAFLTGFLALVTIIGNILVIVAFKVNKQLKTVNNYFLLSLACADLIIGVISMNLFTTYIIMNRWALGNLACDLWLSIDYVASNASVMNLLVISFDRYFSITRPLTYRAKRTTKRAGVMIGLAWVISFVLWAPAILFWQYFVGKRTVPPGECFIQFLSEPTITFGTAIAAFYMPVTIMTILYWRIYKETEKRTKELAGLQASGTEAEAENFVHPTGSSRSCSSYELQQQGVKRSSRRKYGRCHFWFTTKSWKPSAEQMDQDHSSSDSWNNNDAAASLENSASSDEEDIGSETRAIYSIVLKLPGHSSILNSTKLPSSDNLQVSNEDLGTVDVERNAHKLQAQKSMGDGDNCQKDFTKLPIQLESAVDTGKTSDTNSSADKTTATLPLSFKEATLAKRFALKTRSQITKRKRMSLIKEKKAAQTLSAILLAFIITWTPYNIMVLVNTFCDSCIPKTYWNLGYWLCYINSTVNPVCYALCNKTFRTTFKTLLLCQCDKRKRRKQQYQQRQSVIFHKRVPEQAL
MEASUREMENT_NOTES: Radioligand binding assay, [3H]-N-methylscopolamine, rat submandibular gland membranes
MEASUREMENT_CONTEXT: Receptor Binding Assay M3 pKi, [3H]-NMS
Attribute: pKi
Scale note: pKi = -log10(concentration in M).

Example entries and their recorded answers appear below.
molecule="O=C(NCC1C2CN(Cc3ccccc3)CC12)C(O)(c1ccccc1)C1CCC(NS(=O)(=O)c2ccc([N+](=O)[O-])cc2)C1 (single isomer, unassigned)" measured_endpoint=pKi reported_value=7.66
molecule="O=C(NC[C@@H]1[C@H]2CN(Cc3ccccc3)C[C@@H]12)[C@](O)(c1ccccc1)C1CCC(NS(=O)(=O)c2ccc(Br)cc2)C1 (stereo partly shown)" measured_endpoint=pKi reported_value=6.89
molecule="O=C(NC[C@@H]1[C@H]2CN(Cc3ccccc3)C[C@@H]12)[C@](O)(c1ccccc1)C1CCC(NS(=O)(=O)c2ccccc2)C1 (stereo partly shown)" measured_endpoint=pKi reported_value=7.30

Let's switch to this molecule now.
Req: # query: pKi | item COc1ccc(S(=O)(=O)NC2CCC([C@](O)(C(=O)NC[C@@H]3[C@H]4CN(Cc5ccccc5)C[C@@H]34)c3ccccc3)C2)cc1 (stereo partly shown) | system: M3 muscarinic receptor (Rattus norvegicus)
Resp: 6.69

###

System: isolated rat bladder
MEASUREMENT_NOTES: Functional experiments using isolated rat bladder (carbachol-induced contraction)
MEASUREMENT_CONTEXT: isolated rat bladder strips, carbachol concentration response curve
Method: Functional Experiments Using Isolated Rat Bladder: […] The bladder was cut into longitudinal strips (3 mm wide and 5-6 mm long) and mounted in 10 ml organ baths at 30° C., with one end connected to the base of the tissue holder and the other end connected to a polygraph through a force displacement transducer. […] At the end of equilibration period the stabilization of the tissue contractile response was assessed with 1 μmol/L of Carbachol consecutively for 2-3 times. […]
MEASURED_ENDPOINT: Functional Assay pKB
Answer using only a numeral; do not append any unit.

Example results:
compound="O=C(COCc1ccccc1)NC1CCC(C(O)(C(=O)NCC2C3CN(Cc4ccccc4)CC23)c2ccccc2)C1 (single isomer, unassigned) [Compound No. 8]" measured_endpoint="Functional Assay pKB" reported_value=7.08
compound="O=C(NC[C@@H]1[C@H]2CN(Cc3ccccc3)C[C@@H]12)[C@](O)(c1ccccc1)C1CCC(F)(F)C1 (single isomer, unassigned) [Compound No. 1A]" measured_endpoint="Functional Assay pKB" reported_value=9.1

Let us move to another entry and its Functional Assay pKB.
Req: What reported Functional Assay pKB corresponds to O=C(NC[C@@H]1[C@H]2CN(Cc3ccccc3)C[C@@H]12)[C@](O)(c1ccccc1)C1CCC(NS(=O)(=O)c2ccccc2)C1 (stereo partly drawn) [Compound No. 7] on isolated rat bladder?
Resp: 6.89

Reference source for all entries: patent US7288562B2
